quantity.measured: melting point (°C)
The answer is to be given in °C; state only the numeric part.

CC(=O)NCCC(=O)N1CCc2nc(-c3ccc(O[C@H]4C[C@H](N5CCCCC5)C4)cc3)sc2C1 :: 144
O=S(=O)(N1CCOCC1)N1CCc2nc(-c3ccc(O[C@H]4C[C@H](N5CCCCC5)C4)cc3)sc2C1 :: 178
O=C(N1CCc2nc(-c3ccc(O[C@H]4C[C@H](N5CCCCC5)C4)cc3)sc2C1)C1(O)CC1 :: 178
CC(=O)N1CCc2nc(-c3ccc(O[C@H]4C[C@H](N5CCSCC5)C4)cc3)sc2C1 :: 196
O[C@H]1C[C@@H](N2CCc3nc(-c4ccc(O[C@H]5C[C@H](N6CCCCC6)C5)cc4)sc3C2)C1 :: 169
CC(=O)N1CCCc2sc(-c3ccc(O[C@H]4C[C@H](N5CCCCC5)C4)cc3)nc21 :: 146

The molecule listed as c1cc2sc(-c3ccc(O[C@H]4C[C@H](N5CCCCC5)C4)cc3)nc2cn1 shows melting point equal to 65

The molecule listed as CC(=O)N1CCc2nc(-c3ccc(O[C@H]4C[C@H](N5CCCCC5)C4)cc3)sc2C1 shows melting point equal to 170.3

The molecule listed as CC(=O)N1CCCCc2nc(-c3ccc(O[C@H]4C[C@H](N5CCCCC5)C4)cc3)sc21 shows melting point equal to 49

The molecule listed as CC(=O)N1CCc2nc(-c3ccc(O[C@H]4C[C@H](N5CCC(F)(F)CC5)C4)cc3)sc2C1 shows melting point equal to 175

The molecule listed as CC(=O)N1CCc2oc(-c3ccc(O[C@H]4C[C@H](N5CCCCC5)C4)cc3)nc2C1 shows melting point equal to 141.9
